study-system: T1, human LAG3, full length, stably expressed on cells (human, UniProt P18627 23-525)
T1 construct: whole, on cells; also called CHOK1-human LAG3
T1 sequence (looked up): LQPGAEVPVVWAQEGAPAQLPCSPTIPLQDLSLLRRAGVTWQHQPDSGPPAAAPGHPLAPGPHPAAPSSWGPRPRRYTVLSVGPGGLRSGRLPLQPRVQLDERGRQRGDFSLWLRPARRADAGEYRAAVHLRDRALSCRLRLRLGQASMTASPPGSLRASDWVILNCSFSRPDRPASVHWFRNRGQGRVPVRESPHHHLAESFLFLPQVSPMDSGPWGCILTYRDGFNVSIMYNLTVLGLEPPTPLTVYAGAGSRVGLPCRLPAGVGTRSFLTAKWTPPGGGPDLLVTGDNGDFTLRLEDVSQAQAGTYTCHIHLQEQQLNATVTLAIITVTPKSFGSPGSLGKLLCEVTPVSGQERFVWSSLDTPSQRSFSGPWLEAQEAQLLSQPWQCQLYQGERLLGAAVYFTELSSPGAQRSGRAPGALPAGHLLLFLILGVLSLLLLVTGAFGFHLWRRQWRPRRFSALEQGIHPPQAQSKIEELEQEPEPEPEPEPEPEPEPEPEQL
measurement-description: FACS on 293F cells stably expressing human LAG3
pEC50: −log10 of the molar value.
quantity: pEC50

>  <binder>
023c (antibody, human IgG4, V domains shown, human IgG4 S228P / kappa chimeric antibody; also called chimeric antibody 023; ES005-023c; not shown: human kappa light chain constant region (pcDNA3.4-hIgGk vector)) VH: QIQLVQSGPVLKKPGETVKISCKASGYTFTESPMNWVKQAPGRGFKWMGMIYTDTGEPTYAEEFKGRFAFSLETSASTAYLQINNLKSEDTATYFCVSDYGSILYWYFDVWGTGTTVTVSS VL: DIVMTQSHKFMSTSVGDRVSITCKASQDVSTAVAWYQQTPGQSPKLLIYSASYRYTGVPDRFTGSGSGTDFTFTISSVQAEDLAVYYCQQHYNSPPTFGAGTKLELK

>  <quantity>
pEC50

>  <value-reported>
8.89

$$$$
>  <binder>
024c (antibody, human IgG4, V domains shown, human IgG4 S228P / kappa chimeric antibody; also called chimeric antibody 024; not shown: human kappa light chain constant region (pcDNA3.4-hIgGk vector)) VH: EVQLQQSGPELVKPGASVKISCKASGYTFTDYYMNWVKQSHGKRLEWIGDIDPNNGGTSYNQKFKGKATLTVDKSSSSAYMDLRSLTSEDSAVYYCARAGSYYYGSSYVEYFDVWGTGTTVTVSS VL: DIQMTQSPASLSASVGETVTITCRASGNIHNYLAWYQQKQGASPQLLVYNAKTLADGVPSRFSGSGSGTEFSLKINSLQPEDFGNYYCQHFWNTPYTFGGGTKLEIK

>  <quantity>
pEC50

>  <value-reported>
8.96

$$$$
>  <binder>
047c (antibody, human IgG4, V domains shown, human IgG4 S228P / kappa chimeric antibody; also called chimeric antibody 047; not shown: human kappa light chain constant region (pcDNA3.4-hIgGk vector)) VH: QVQLQQSGAELARPGASVKLSCKASGYSFTSYGVNWVKQRTGQGLEWIGEIYPRSGNTYYNERFGDKATLTADKSSSTAYMEIRSLTSEDSAVYFCARGGTYDGYYYAMDYWGQGTSVTVSS VL: DIVLTQSPASLAVSLGQRATISCRASESVDNFGSSFMHWYQQKPGQAPKLLIYRASNLESGIPARFSGSGSRTDFTLTINPVETDDVATYYCQQVNKDPRTFGGGTKLEIK

>  <quantity>
pEC50

>  <value-reported>
8.89

$$$$
>  <binder>
035c (antibody, human IgG4, V domains shown, human IgG4 S228P / kappa chimeric antibody; also called chimeric antibody 035; not shown: human kappa light chain constant region (pcDNA3.4-hIgGk vector)) VH: QVQLQQSGAELARPGASVKLSCKASGYSFTSYGINWVKQRTGQGLEWIGEIYPRSGNTYYNEKFKDKATLTADKSSSTAYMELRSLTSEDSAVYFCARGGTYDGYYYAMDFWGQGTSVTVSS VL: DIVLTQSPASLAVSLGQRATISCRASESVDNFGSSFLHWYQQKPGQAPKLLIYRASNLESGIPARFSGSGSRTDFTLTINPVETDDVATYYCQQVNKDPRTFGGGTKLEIK

>  <quantity>
pEC50

>  <value-reported>
8.89

$$$$
>  <binder>
015c (antibody, human IgG4, V domains shown, human IgG4 S228P / kappa chimeric antibody; also called chimeric antibody 015; not shown: human kappa light chain constant region (pcDNA3.4-hIgGk vector)) VH: EVQLQQSGPVLVKPGASVKLSCKASGFTFTDYYMNWVKLSHGKSLEWIGVINPFNGDTAYKQKFKGKATLTVDKSSSTAYMELNSLTSEDSAVYYCARDDGYYLYYFDSWGQGTTLTVSS VL: DIQMTQSPSSLSASLGERVSLTCRASQDIGSRLNWLQQEPDGTIKRLIYATSSLDSGVPKRFSGSRSGSDYSLTISSLDSEDFVVYYCLQYASSPPTFGAGTKLELK

>  <quantity>
pEC50

>  <value-reported>
8.72

$$$$
